Reported values of growth for individual entries
# Test system: UACC-62 melanoma
# Assay Protocol: NCI-60 one-dose screen, 48 h (100 = growth as untreated, 0 = no growth, -100 = all killed)
# Experimental Parameters: 10 µM unless noted
About 83,000 compounds went through this panel and 20% of them were active in at least one assay; those are over-represented in the sample as a whole. The source made the active and inactive calls. The calls were made as follows: active = growth percent below 10; inactive = the rest.

The measured growth associated with Oc1cccnc1CN1CCCC1 reads 102% (inactive)

growth for FC(F)(F)c1cc(NC2=NCCN=C(Nc3cc(C(F)(F)F)cc(C(F)(F)F)c3)SS2)cc(C(F)(F)F)c1 is 35.6% (inactive)

----------
In this section, each of the compounds is paired with its reported growth.
# Tested on: NCI-H522 lung
# Assay Protocol: NCI-60 one-dose screen, 48 h (100 = growth as untreated, 0 = no growth, -100 = all killed)
# Experimental Parameters: 10 µM unless noted
This is part of a sample that, as a whole, favours compounds with a hit. Of some 83,000 tested, about 20% had one in any assay.
Report the figure in % without appending any unit label.

See these solved cases before continuing.
O=C(O)Cc1ccccn1	100
Cn1c(=O)c2[nH]c(CCCCC(=O)O)nc2n(C)c1=O	96.2

The compound CCCCN(C(=O)CC)c1ccccc1 showed growth equal to 95.3

# compound O=CNCCc1ccccc1 ; its growth = 104

Sample Cc1ccc2nc(-c3ccc(N=Cc4ccccc4O)cc3)sc2c1 ; growth observed: 61.3

Measured growth of CN(C)c1ccc(/C=C/C(=O)c2ccc(NC(N)=O)cc2)cc1 : 95.3

// O=C(O)c1ccc([N+](=O)[O-])cc1S(=O)(=O)O : growth value = 101

response.value for CCOc1ccc(NC(=S)N2CCC(CCCC3CCN(C(=S)Nc4ccc(OCC)cc4)CC3)CC2)cc1 (field: growth) = 77.7

Looking up CCCCCC/C=C\CCCCCCCCCc1cc(O)cc(OC)c1O , I found its growth recorded as -76.8

// sample CCCC1OC(c2ccco2)OCC1CC (stereo unspecified) , its growth was 80.5

// growth value for Nc1ccc2ccccc2c1-c1c(N)ccc2ccccc12 : 37.1

Recorded result, CC(C)Sc1ncnc2nc[nH]c12 , growth: 109

Entry under test: CC(C)N1CC(=O)N2CSCC2C1=O (stereo unspecified) . Its growth was 102

Form: compound = CCC1CCC(C)NC1 (stereo unspecified) ; growth = 99.2

Briefly, growth measured for CNc1ccccc1C(=O)N/N=C/C=C/c1ccccc1 : -18.1

Lookup result for CCOC(=O)N[C@H]1CCc2cc(OC)c(OC)c(OC)c2-c2ccc(SC)c(=O)cc21 ; measured growth: -8.99

// sample NC(=S)N/N=C/c1ccc(Cl)cc1 , its growth was 87.8

// growth value for Nc1c(O)c(S(=O)(=O)O)c(O)c2c1C(=O)c1ccccc1C2=O : 7.56

Query Cc1[nH]n(-c2ccccc2)c(=O)c1C=NC(=S)C(N)=S yields growth of 86.2

Noted for N#C/C(=C\c1ccc2c(c1)OCO2)c1ccccc1 : its growth reads 52

# growth (compound: NC(=S)N/N=C/c1ccc(OC(=O)COc2ccccc2)cn1 ) is 58

Per the records, this compound ( O=C(OCc1ccccc1)n1nnc2ccccc21 ) has growth equal to 100

----------
This section presents molecules with their documented growth values.
# System: CAKI-1 renal
# Assay Protocol: NCI-60 one-dose screen, 48 h (100 = growth as untreated, 0 = no growth, -100 = all killed)
# Experimental Parameters: 10 µM unless noted
About 83,000 compounds went through this panel and 20% of them were active in at least one assay; those are over-represented in the sample as a whole.
Write the answer as a number in %, unit excluded.

Solved cases below.
Nc1cc2ccccc2c(O)c1O	84.5
Cc1ccc(C)c(CN(C)C)c1O	114
NC(CSSCC(N)C(=O)O)C(=O)O (stereo not given)	11.4
O=C(O)C1CSC(c2ccccc2)N1 (stereo not given)	105
C=C1C(=O)C2CCC1C2 (stereo not given)	101

Quick note, growth for Clc1ccc(C(SCc2ccccc2)SCc2ccccc2)cc1 landed at 85

// recorded growth for N#CC1(O)CCCCC1 : 92.5

growth recorded for this molecule, CC(CC(CCC(=O)O)(c1ccccc1)c1ccccc1)N(C)C (stereo not given) , is 95

get_value(item= CSc1nc2[nH]ncc2c(=O)[nH]1 , readout=growth) returns 103

Please fill in: growth reported for CCN(CC)CCOC(=O)Nc1c(C(C)C)cccc1C(C)C = 88.9

For reference, reported growth for O=C(O)c1c[nH]c2ccccc2c1=O stands at 100

growth measured on CN(C)Cc1ccccn1 = 96.8

// field: growth; key: C=C1C(=O)C2CCN1CC2 ; value = 92

growth reading for C=C(OC(C)=O)c1ccccc1 : 100

----------
Parameter growth: see the listing below.
# System: HCT-116 colon
# Assay Protocol: NCI-60 one-dose screen, 48 h (100 = growth as untreated, 0 = no growth, -100 = all killed)
# Experimental Parameters: 10 µM unless noted
About 83,000 compounds went through this panel and 20% of them were active in at least one assay; those are over-represented in the sample as a whole.
Report the figure in % without appending any unit label.

Cc1[nH]n(-c2ccccc2)c(=O)c1C=NC(=S)C(N)=S	89.5
C/C(O)=C(/C=N\C(=S)Nc1ccc(S(=O)(=O)Nc2nccs2)cc1)C(=O)Nc1ccccc1C	94.7
CN(C)c1ccc(O)c2c1CC1CC3C(N(C)C)C(=O)C(C(N)=O)=C(O)C3(O)C(=O)C1=C2O (stereo unspecified)	34.1
O=C(NCc1ccccc1)/C(=C/c1ccccc1)NC(=O)c1ccccc1	107
CC(=O)c1cccc(NS(=O)(=O)c2ccc(C)cc2)c1	60.2

Entry Cc1cc(CO)c(O)c(CO)c1 : growth on HCT-116 colon = 98.2

Log: HCT-116 colon, compound COC(=O)c1ccc([N+](=O)[O-])c(C)c1 , growth = 95.6

Observed growth on HCT-116 colon, entry Oc1ccc2ccccc2c1CN1CCOCC1 , equals 103

Param item: OCCOc1ccc(-c2cc(-c3ccccn3)nc(-c3ccccn3)c2)cc1 ; param system: HCT-116 colon; output growth: 6.4

Reported growth (HCT-116 colon) for entry C=CCNC(=S)N/C=C(/C(=O)c1ccccc1)c1ccccc1 is 115

Query CC1CN(CCO)CC(C)O1 (stereo unspecified) on HCT-116 colon; growth returned: 112

The observed growth for COc1cc(N)c2ncccc2c1Cl when tested with HCT-116 colon stands at 95.3

Reading of growth for C1CCc2onc(-c3noc4c3CCCCC4)c2CC1 with HCT-116 colon: 105

Observed growth, HCT-116 colon, S=c1nc2[nH]c3ccccc3c2n[nH]1 : 96.4

Given the compound CC(=O)Nc1ccc(O)c(C)c1 and test system HCT-116 colon, the measured growth is 99.1

Bench note, HCT-116 colon: entry C/C(Cc1ccccc1)=N\O , its growth = 101

Record O=[N+]([O-])c1c(O)c(CNCCCO)cc(CNCCCO)c1O has HCT-116 colon growth equal to 97.4

Sample O=C(c1ccccc1)c1ccc(-c2ccc(O)cc2)cc1 , system: HCT-116 colon. Its growth is 59.4

The compound CCC(C)C1CCC(O)CC1 (stereo unspecified) on HCT-116 colon: growth was 101

Measured on HCT-116 colon, C=C(c1ccc(N(C)C)cc1)c1ccc(N(C)C)cc1 has a documented growth of 5.45

C/C=C/C1OCC(CC)C(CCC)O1 (stereo unspecified) on HCT-116 colon gives growth = 103

growth on HCT-116 colon for CCCCOC(=O)c1ccc(NC(=O)CCl)cc1 is 4.07

# growth measured on HCT-116 colon for item OCc1cccnc1 = 107

Known value: HCT-116 colon growth of the compound NNc1ncnc2nc[nH]c12 equals 24

Result for CN=S(=O)(OCCCCCOS(=O)(=NC)c1ccc(C)cc1)c1ccc(C)cc1 (stereo unspecified) , tested on HCT-116 colon, growth: 75.2

----------
# System: MCF7 breast
# Assay Protocol: NCI-60 one-dose screen, 48 h (100 = growth as untreated, 0 = no growth, -100 = all killed)
# Experimental Parameters: 10 µM unless noted
The panel holds about 83,000 compounds, 20% with a hit somewhere; the sample as a whole holds those more often.
We begin with a simple list: items and their reported growth.
Give just the numeric value; % need not be written.

As a guide, the following entries are already answered.
Cc1c(-c2ccc(C3CCCCC3)cc2)nc2ccc(F)cc2c1C(=O)O	27
Cn1/c(=N\N=C\c2ccccc2OCCO)sc2ccccc21	76.9
C=C1C(=O)C2CCC1C2 (stereo not drawn)	109
CN(C)c1ccc2nc3ccc(=[N+](C)C)cc-3oc2c1	-30.4

The compound listed as Cc1nc(C)c(C(=O)O)cc1C(=O)O shows growth equal to 109

CCOC(=O)C(CCC#N)(CCC#N)C(=O)OCC yielded growth of 91.4

Measured growth of C=C(C)[C@@H]1CC[C@]2(CO)CC[C@]3(C)[C@H](CC[C@@H]4[C@@]5(C)CC[C@H](O)C(C)(C)[C@@H]5CC[C@]43C)[C@@H]12 : 42.9

The measured growth associated with CCCCCCCCNC(=O)C(C)C reads 92

The recorded growth for entry Nc1ncnc(Nc2ccc(C(F)(F)F)cc2)n1 equals 96.6

O=C(Nc1ccccc1)c1ccco1 has a reported growth of 95.5

Notebook: OCC1OC(n2ccc3c2ncn2ncnc32)C(O)C1O (stereo not drawn) , growth read as 9.97

Per the records, this compound ( O=[N+]([O-])c1c(O)c(CNCCCO)cc(CNCCCO)c1O ) has growth equal to 112

Entry O=c1nc(Nc2cccc(Cl)c2)oc2cc(Cl)oc(=O)c12 , growth reported as 53.8

The recorded growth for entry Cc1ccc(C2CCCCC2)cc1Br equals 96.9

// growth lookup, compound = C=CCN1CCCC1=O , result: 99.6

For this compound ( ClCC(Cl)[C@@H]1CC2C=CC1C2 (stereo partly drawn) ), measured growth is 98.1

Form: compound = O=C(N/N=C\c1ccc(Cl)cc1Cl)c1ccncc1 ; growth = 87.2

Consider CCOc1ccc(NC(=S)N2CCC(CCCC3CCN(C(=S)Nc4ccc(OCC)cc4)CC3)CC2)cc1 . Its measured growth is 84.1

The value of growth measured for the compound CC(=O)N(C)N=Nc1ccc(C)cc1 turned out to be 106

Given item CC(=O)OCC1OC(n2cnc3c(=S)nc(N)[nH]c32)C(OC(C)=O)C1OC(C)=O (stereo not drawn) , the value recorded as its growth is 60.7

In plain terms, Cc1cc2c3ccc(C)[n+](C)c3ccc2n1C has a documented growth of 57

growth reading for Clc1ccc(C(SCc2ccccc2)SCc2ccccc2)cc1 : 93.8

So, Oc1ccc2ccccc2c1CN1CCOCC1 ? Its growth was 106
